Test system: CCRF-CEM leukemia
Please state which outcome applies, choosing from active, inactive

compound | label class
Clc1ccc(N/N=C(\c2ccccc2)c2ccccn2)nc1 | active
O=C(NCCNC(=O)c1ccc(F)cc1)Nc1ccc(-n2cc(-c3ccncc3)c(-c3ccc(Cl)c(O)c3)n2)cc1 | active
CC(=O)[O][Hg][CH2]C1(C)COC(C)([CH2][Hg][O]C(C)=O)CO1 (centres undefined) | active
COc1ccc(C2SCC(=O)N2NC(=O)C(O)c2ccccc2)cc1 (centres undefined) | inactive
C=C1[C@@H](O)C[C@H]2C(C)(C)C[C@H](Cl)C[C@]2(C)[C@H]1C[C@H](O)[C@H]1CC(=O)NC1=O | active
CC(=O)N1N=C(c2ccc(Nc3nc(Nc4ccc(F)cc4)nc(Nc4ccc(Cl)cc4)n3)cc2)CC1c1ccc(N(C)C)cc1 (centres undefined) | inactive

Task item: Query: recorded result category for CC(C)c1ccc(/C=N/N=C(N)N)cc1 in this test
Reply: inactive

Task item: Please let me know the test result on file for Cn1ccc2c3c(=O)cc[nH]c3ccc21 .
Reply: inactive

Task item: Fill in: this test's call for O=C(Nc1cc(C(F)(F)F)cc(C(F)(F)F)c1)Nc1ccc(OCc2nnc(-c3ccc(Cl)cc3)o2)c(F)c1 is ___
Reply: inactive

* * *

Tested on: SW-620 colon
Assay: NCI tumour cell line growth inhibition, 48 h
# TGI per entry

Consider the following illustrative entries.
compound | target | TGI
CCOC(=O)Nc1ccc(C(=O)/C=C/c2ccccc2)cc1 | SW-620 colon | > 100 µM
NC1=NCC(c2ccccn2)C1c1ccc(F)cc1 (configuration not stated) | SW-620 colon | > 100 µM
C[n+]1cc2cc3c(cc2c2ccccc21)OCO3 | SW-620 colon | > 100 µM
COc1ccc2c(c1)C(=O)c1c-2n(CCCN=[N+]=[N-])c(=O)c2cc(N)ccc12 | SW-620 colon | > 100 µM
CN(C)c1cccc(/C=C(\C#N)c2ccccc2)c1 | SW-620 colon | > 56 µM

Task item: Lab note: record TGI of C=CC[C@@]12CCC(=O)C=C1CCCC2=O tested on SW-620 colon.
Reply: > 100 µM

Task item: Give measured TGI for O=C(O)c1cc2cc(O)ccc2[nH]1 (SW-620 colon).
Reply: > 100 µM

Task item: Specify TGI for CCOC(=O)C1=C(C)N(NC(=O)OC)C2(N)N(NC(=O)OC)C(C)=C(C(=O)OCC)C12C#N (configuration not stated) , system SW-620 colon.
Reply: > 100 µM

Task item: With SW-620 colon as the test system, provide measured TGI for this compound: COC1=CC(=O)c2c(n[nH]c2CCNC(=O)OCc2ccccc2)C1=O
Reply: 36.8 µM

Task item: GET TGI | system: SW-620 colon | item: C[N+]1(C)C/C(=C\c2ccc(O)cc2)C(=O)/C(=C/c2ccc(O)cc2)C1
Reply: > 100 µM

Task item: Report its TGI with SW-620 colon as the test system: COc1cccc(N2C(=O)C3c4[nH]c5ccc(C)cc5c4C4CCC(C)CC4C3C2=O)c1 (configuration not stated)
Reply: > 100 µM

Task item: Return reported TGI for target or system SW-620 colon, item N#CSCC1CC(O)(c2ccccc2)CC(c2ccc(Cl)cc2)O1 (configuration not stated) .
Reply: 3.35 µM

Task item: Fill: TGI (SW-620 colon) for this compound O=C(c1ccc(Cl)c(Cl)c1)N(C(=O)N1CCN(c2ccccc2)CC1)S(=O)(=O)c1ccccc1
Reply: > 100 µM

Task item: Please tell me the measured TGI for CC1NCCc2c1[nH]c1cc(O)ccc21 (configuration not stated) ; system: SW-620 colon.
Reply: > 100 µM

Task item: Provide TGI, tested on SW-620 colon, for Nc1ccc(S(=O)(=O)NCCS(=O)(=O)O)cc1 .
Reply: > 100 µM

Task item: Lab note: SW-620 colon assay, enter TGI for O=C1COc2cc3c(cc2N1)SCCC(=O)N3 here
Reply: > 100 µM

Task item: Look up SW-620 colon data: TGI of COC(=O)/C=C/C(=O)Nc1cc(Cl)c(Cl)cc1CC(=O)N(C)[C@H]1CCCC[C@@H]1N1CCCC1 , then report it.
Reply: 26.7 µM

Task item: Please report TGI with SW-620 colon for item O=C1/C(=C/c2ccc(OC(=O)c3ccc(Cl)cc3)cc2)CCC/C1=C\c1ccc(OC(=O)c2ccc(Cl)cc2)cc1 .
Reply: > 100 µM

Task item: Identify measured TGI obtained with SW-620 colon for CCOc1ccc(N=Nc2ccc(-c3ccc(N=Nc4c(O)ccc5cc(S(=O)(=O)O)cc(S(=O)(=O)O)c45)cc3)cc2)cc1 .
Reply: > 100 µM

* * *

Test system: BT-549 breast
Test: NCI tumour cell line growth inhibition, 48 h
quantity name: TGI (µM)
// note: answer is a bare numeric in µM

Task item: Give TGI only, for COc1ccc2cc(/C=N\NC(=O)Nc3ccc([N+](=O)[O-])cc3)ccc2c1 , using BT-549 breast data.
Reply: 18.6

Task item: Provide TGI, recorded with BT-549 breast, of COC(=O)/C=C/c1ccc2c(c1)[C@H](C(=O)OC)[C@@H](c1ccc(O)cc1)O2
Reply: 46.4

* * *

A collection of compounds and their measured TGI
System: SNB-19 CNS
Experiment: NCI tumour cell line growth inhibition, 48 h

Below are worked cases with known answers.
input smiles | TGI
COc1ccc2oc(=O)c(-c3csc(-c4ccccc4)n3)cc2c1 | 45 µM
Cc1cccc(/C=C2/C(=O)Nc3ccccc32)n1 | > 58.9 µM
COc1ccc(C(=O)C/C(=N/NC(N)=S)C(=O)Nc2ccccc2)cc1 | > 100 µM

Task item: Enter recorded TGI with SNB-19 CNS for CC(C)(C)c1cc(-c2c3nc(c(-c4cc(C(C)(C)C)cc(C(C)(C)C)c4)c4ccc([nH]4)c(-c4cc(C(C)(C)C)cc(C(C)(C)C)c4)c4nc(c(-c5cc(C(C)(C)C)cc(C(C)(C)C)c5)c5ccc2[nH]5)C=C4)C=C3)cc(C(C)(C)C)c1 here.
Reply: > 100 µM

* * *

Tested on: HS 578T breast
Assay: NCI tumour cell line growth inhibition, 48 h
Where a SMILES comes first, the peptide text is derived from it. The star is where a group is joined. Boc = CC(C)(C)OC(=O)*; Bn = c1ccc(C*)cc1
quantity name: TGI

As a guide, the following entries are already answered.
molecule | target | readout value
CCOC(=O)CON=c1c2ccccc2ccc2ccccc12 | HS 578T breast | > 100 µM
COc1ccc(C2CC(c3cccc(OC)c3)=NN2C(=O)c2cc(OC)c(OC)c(OC)c2)cc1 (stereo not drawn) | HS 578T breast | 5.37 µM
COc1ccc2c(c1)C(=O)c1c-2n(CCCN=[N+]=[N-])c(=O)c2cc(N)ccc12 | HS 578T breast | > 100 µM

Task item: Look up and state reported TGI for COC(=O)C(CC(C)C)NC(=O)CNC(=O)C(Cc1ccc(OCc2ccccc2)cc1)NC(=O)C(COCc1ccccc1)NC(=O)OC(C)(C)C (stereo not drawn) (Boc-S(Bn)Y(Bn)GL-OMe; configuration not given here)
Reply: > 100 µM

Task item: Find the measured TGI of Cc1ncc(COP(=O)(O)O)c(C)c1O and report it.
Reply: > 100 µM

Task item: Look up TGI of COc1cccc(N2C(=O)C3c4[nH]c5ccc(C)cc5c4C4CCC(C)CC4C3C2=O)c1 (stereo not drawn) and report it.
Reply: 64.9 µM

Task item: Return value of TGI for input CCOC(=O)C(O)Cc1cnc2ccccc2n1 (stereo not drawn) , no commentary.
Reply: > 100 µM

Task item: Fill in reported TGI for this entry: O=C(c1ccc(Cl)c(Cl)c1)N(C(=O)N1CCN(c2ccccc2)CC1)S(=O)(=O)c1ccccc1
Reply: > 100 µM

Task item: Give the reported TGI for this molecule. CSC(=NC#N)S/C=C/C(=O)c1cccc2ccccc12
Reply: > 100 µM

* * *

Test system: EKVX NSCLC
Test: NCI tumour cell line growth inhibition, 48 h
quantity name: TGI

// solved cases for TGI follow
molecule | TGI
CC(=O)[O][Hg][CH2]C1(C)COC(C)([CH2][Hg][O]C(C)=O)CO1 (centres undefined) | 36.3 µM
CNC1=CC(=O)C2=C(C1=O)C1C3=C(C(=O)C(Br)=C(OC)C3=O)C2c2ccccc21 (centres undefined) | 3.31 µM
Oc1ccc2ccccc2c1NCn1nc(CCCCCCCCc2nn(CNc3c(O)ccc4ccccc34)c(=S)o2)oc1=S | > 100 µM
O=C(c1ccccc1)c1ccc(O)c2ncccc12 | 56.1 µM
C=C1C(=O)OC2/C=C(\C)CC/C=C(\C)CC(OC(=O)/C(=C/CO)CO)[C@@H]12 (some centres undefined) | 29 µM
COc1cc(OC)c2nc(C)c3c(c2c1)OCC3 | > 100 µM
Cn1c(-c2cccs2)cc(-c2ccsc2)c1-c1cccs1 | > 100 µM
Cc1cccc(Cl)c1NC(=O)c1cccc([N+](=O)[O-])c1O | > 100 µM
CC1=NN(C(=O)CC(=O)Nc2ccc(Cl)cc2)C(=O)C1N=Nc1ccc(S(=O)(=O)c2ccc(N=NC3C(=O)N(C(=O)CC(=O)Nc4ccc(Cl)cc4)N=C3C)cc2)cc1 (centres undefined) | > 100 µM
O=C(/C=N/O)Nc1ccc(Cl)c(I)c1 | 63.9 µM

Task item: Tell us which TGI value is on record for Cc1ccc(N(/C=C/C(=O)C(F)(F)F)CC(=O)c2ccc(Cl)c(Cl)c2)cc1
Reply: 18.9 µM

Task item: // fetch TGI given entry CC(=O)OC1CC2(O)C(CCC3(C)C(c4ccc(=O)oc4)CCC32O)C2(C)CCC(OC3OC(CO)C(O)C(O)C3O)C=C12 (centres undefined)
Reply: 0.0419 µM

Task item: Determine from records and report TGI for COc1ccc(C2SCC(=O)N2NC(=O)C(O)c2ccccc2)cc1 (centres undefined)
Reply: > 100 µM

Source of measurements: PubChem BioAssay (NCI)
